target: dopamine (DA) transport (Rattus norvegicus, UniProt P23977); construct: synaptosomal preparations were made from either whole brain (5-HT), striatum (DA) or hypothalamus (NE); experiment: biochemical
Sequence (P23977 whole entry): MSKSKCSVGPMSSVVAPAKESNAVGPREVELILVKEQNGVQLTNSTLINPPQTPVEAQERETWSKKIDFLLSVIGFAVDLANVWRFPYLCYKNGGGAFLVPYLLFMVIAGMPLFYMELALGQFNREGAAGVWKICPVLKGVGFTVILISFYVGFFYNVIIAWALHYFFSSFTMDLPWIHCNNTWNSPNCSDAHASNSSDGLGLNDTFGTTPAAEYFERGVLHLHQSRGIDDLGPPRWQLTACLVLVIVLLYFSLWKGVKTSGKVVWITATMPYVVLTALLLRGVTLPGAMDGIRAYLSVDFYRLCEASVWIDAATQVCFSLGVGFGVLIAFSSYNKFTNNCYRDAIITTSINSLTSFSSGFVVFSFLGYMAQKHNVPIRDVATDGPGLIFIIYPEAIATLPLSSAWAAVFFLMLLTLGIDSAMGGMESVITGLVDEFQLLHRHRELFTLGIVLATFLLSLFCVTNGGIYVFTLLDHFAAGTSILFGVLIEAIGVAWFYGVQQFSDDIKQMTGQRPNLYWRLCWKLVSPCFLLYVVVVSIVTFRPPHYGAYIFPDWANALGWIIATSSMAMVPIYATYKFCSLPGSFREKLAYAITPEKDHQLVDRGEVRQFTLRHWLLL
pIC50: −log10 of the molar value.

{"COMPOUND": "CNC1CC2CC2(c2cccc3ccccc23)C1 (stereo not shown)", "SUBJECT_OF_TEST": "dopamine (DA) transport (Rattus norvegicus, UniProt P23977)", "pIC50": 5.06}

---

molecular target: serotonin (5-HT) transport (Rattus norvegicus); construct: synaptosomal preparations were made from either whole brain (5-HT), striatum (DA) or hypothalamus (NE); test: biochemical
Sequence (P31652 whole entry): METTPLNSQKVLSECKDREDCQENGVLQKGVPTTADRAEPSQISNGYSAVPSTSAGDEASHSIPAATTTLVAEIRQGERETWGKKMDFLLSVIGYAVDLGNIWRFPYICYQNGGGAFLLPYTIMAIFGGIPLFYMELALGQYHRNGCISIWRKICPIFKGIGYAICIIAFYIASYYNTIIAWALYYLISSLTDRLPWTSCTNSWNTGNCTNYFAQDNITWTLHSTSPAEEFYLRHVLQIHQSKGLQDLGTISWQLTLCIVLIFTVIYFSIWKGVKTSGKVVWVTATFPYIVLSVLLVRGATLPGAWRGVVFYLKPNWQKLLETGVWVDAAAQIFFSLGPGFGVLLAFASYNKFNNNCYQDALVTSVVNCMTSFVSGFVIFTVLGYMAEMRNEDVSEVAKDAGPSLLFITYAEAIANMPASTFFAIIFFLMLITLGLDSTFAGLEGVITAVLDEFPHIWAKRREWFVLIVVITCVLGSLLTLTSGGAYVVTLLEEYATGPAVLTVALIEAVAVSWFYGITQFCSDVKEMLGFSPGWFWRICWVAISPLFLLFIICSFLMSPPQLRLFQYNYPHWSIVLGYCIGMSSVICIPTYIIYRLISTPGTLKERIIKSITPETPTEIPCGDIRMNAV
pIC50: −log10 of the molar value.

{"COMPOUND": "CNC1CC2CC2(c2cccc3ccccc23)C1 (stereo not shown)", "pIC50": 7.12}

---

Molecular target: norepinephrine (NE) transport (Rattus norvegicus, UniProt Q63380)
Construct: synaptosomal preparations were made from either whole brain (5-HT), striatum (DA) or hypothalamus (NE); from tissue; host or cells: rat hypothalamus synaptosomes
Sequence (Q63380 1-617): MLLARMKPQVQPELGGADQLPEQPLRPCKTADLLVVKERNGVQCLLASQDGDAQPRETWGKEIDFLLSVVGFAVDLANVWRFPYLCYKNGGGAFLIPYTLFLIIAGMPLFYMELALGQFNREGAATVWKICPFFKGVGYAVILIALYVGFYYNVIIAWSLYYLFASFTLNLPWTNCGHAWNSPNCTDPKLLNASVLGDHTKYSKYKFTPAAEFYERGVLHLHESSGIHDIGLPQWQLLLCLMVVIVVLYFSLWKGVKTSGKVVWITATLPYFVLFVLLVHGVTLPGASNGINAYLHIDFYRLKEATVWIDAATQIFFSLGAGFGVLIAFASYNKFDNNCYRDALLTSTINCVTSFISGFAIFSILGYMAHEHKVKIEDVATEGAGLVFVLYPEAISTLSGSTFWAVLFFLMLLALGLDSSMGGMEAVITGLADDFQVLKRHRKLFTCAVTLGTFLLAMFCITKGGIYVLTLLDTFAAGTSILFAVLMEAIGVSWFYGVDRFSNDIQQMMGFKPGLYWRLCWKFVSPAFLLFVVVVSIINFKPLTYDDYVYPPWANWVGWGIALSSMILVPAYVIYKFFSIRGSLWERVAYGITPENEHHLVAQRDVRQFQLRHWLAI
Test: Inhibition of [3H]NE uptake in rat hypothalamus synaptosomes
Assay type: biochemical
Protocol: The effects of arylbicyclo[3.1.0]hexylamines of the invention for inhibiting transport of norepinephrine (NE) and/or dopamine (DA) and/or serotonin (5-HT) were evaluated using preparations of synaptosomes from different regions of the rat brain according to previously-reported techniques. […]
TEST_READOUT: IC50

{"COMPOUND": "CNC1CC2CC2(c2cccc3ccccc23)C1 (stereo not shown)", "TEST_READOUT": "IC50", "REPORTED_MEASUREMENT": "74 nM"}
